protocol-text: Displacement of [3H]Ro15-1788 from recombinant rat GABAAalpha3/beta2/gamma2 receptor after 90 mins by liquid scintillation counting method
pKi: −log10 of the molar value.
outcome-measure: pKi

Examples with answers:
[
  {
    "chemical-string": "O=c1c(-c2cc[nH]n2)n[nH]c2c(-c3cccc(Cl)c3)cnn12",
    "outcome-measure": "pKi",
    "result": 6.18
  },
  {
    "chemical-string": "O=c1c(-c2cc[nH]n2)n[nH]c2c(-c3cccc(C(F)(F)F)c3)cnn12",
    "outcome-measure": "pKi",
    "result": 6.30
  },
  {
    "chemical-string": "O=c1c(-c2cc[nH]n2)n[nH]c2c(-c3cccnc3)cnn12",
    "outcome-measure": "pKi",
    "result": 6.30
  }
]

[a] O=c1c(-c2cc[nH]n2)n[nH]c2c(-c3ccc(F)cc3)cnn12
[b] O=c1c(-c2cc[nH]n2)n[nH]c2c(-c3ccccc3)cnn12
Which entry shows the lesser value of pKi here, a or b ? Write down the label of the entry you select.
b

[P] O=c1c(-c2cc[nH]n2)n[nH]c2c(-c3cccc(Br)c3)cnn12
[Q] O=c1c(-c2cc[nH]n2)n[nH]c2c(-c3cccc(F)c3)cnn12
Which entry shows the lesser value of pKi here, P or Q ? Write down the label of the entry you select.
Q

---

measured-on: GABA-A receptor; alpha-1/beta-2/gamma-2 (Rattus norvegicus, UniProt P18508+P62813+P63138)
Sequence (P18508 whole entry): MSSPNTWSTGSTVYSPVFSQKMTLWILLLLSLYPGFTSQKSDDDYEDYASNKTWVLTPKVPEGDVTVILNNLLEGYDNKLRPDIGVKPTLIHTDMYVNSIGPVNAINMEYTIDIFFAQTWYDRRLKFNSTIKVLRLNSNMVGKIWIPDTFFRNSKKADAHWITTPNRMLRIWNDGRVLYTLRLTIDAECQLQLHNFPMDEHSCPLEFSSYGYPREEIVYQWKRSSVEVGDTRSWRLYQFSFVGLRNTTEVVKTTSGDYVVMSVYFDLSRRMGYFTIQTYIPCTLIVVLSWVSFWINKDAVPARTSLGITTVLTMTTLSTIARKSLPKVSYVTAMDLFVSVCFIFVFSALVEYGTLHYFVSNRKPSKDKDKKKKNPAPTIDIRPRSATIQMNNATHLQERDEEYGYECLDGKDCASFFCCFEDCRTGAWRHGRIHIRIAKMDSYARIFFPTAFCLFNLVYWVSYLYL
Sequence (P62813 whole entry): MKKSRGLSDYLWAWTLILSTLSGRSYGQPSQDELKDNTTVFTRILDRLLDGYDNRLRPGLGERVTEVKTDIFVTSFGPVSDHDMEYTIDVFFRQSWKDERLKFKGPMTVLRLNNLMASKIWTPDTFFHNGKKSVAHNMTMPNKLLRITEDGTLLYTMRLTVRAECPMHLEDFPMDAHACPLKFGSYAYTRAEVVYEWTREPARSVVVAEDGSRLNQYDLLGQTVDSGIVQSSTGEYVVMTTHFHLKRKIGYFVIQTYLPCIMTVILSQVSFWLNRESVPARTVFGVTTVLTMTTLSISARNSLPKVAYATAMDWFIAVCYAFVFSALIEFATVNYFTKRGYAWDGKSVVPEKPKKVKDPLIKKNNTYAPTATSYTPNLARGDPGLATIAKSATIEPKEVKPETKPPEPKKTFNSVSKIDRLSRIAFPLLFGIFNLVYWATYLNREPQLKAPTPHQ
Sequence (P63138 whole entry): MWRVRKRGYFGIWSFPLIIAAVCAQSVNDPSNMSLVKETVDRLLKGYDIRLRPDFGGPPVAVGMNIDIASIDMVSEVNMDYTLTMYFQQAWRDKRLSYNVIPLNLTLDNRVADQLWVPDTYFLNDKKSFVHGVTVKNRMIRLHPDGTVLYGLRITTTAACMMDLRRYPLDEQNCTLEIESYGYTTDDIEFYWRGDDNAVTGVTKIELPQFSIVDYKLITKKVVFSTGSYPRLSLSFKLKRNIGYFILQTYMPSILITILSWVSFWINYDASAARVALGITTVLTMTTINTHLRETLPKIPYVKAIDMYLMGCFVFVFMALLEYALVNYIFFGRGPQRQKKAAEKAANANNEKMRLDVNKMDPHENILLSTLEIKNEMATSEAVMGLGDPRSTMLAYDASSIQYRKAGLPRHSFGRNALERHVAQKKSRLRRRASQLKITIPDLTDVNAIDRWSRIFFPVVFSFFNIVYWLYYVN
protocol-text: Displacement of [3H]Ro15-1788 from recombinant rat GABAAalpha1/beta2/gamma2 receptor after 90 mins by liquid scintillation counting method
pKi: −log10 of the molar value.
outcome-measure: pKi

Examples with answers:
[
  {
    "chemical-string": "O=c1c(-c2cc[nH]n2)n[nH]c2c(-c3cccc4ccccc34)cnn12",
    "measured-on": "GABA-A receptor; alpha-1/beta-2/gamma-2 (Rattus norvegicus, UniProt P18508+P62813+P63138)",
    "result": 6.82
  },
  {
    "chemical-string": "O=c1c(-c2cc[nH]n2)n[nH]c2c(-c3ccccn3)cnn12",
    "measured-on": "GABA-A receptor; alpha-1/beta-2/gamma-2 (Rattus norvegicus, UniProt P18508+P62813+P63138)",
    "result": 8.04
  }
]

[1] O=c1c(-c2cc[nH]n2)n[nH]c2c(-c3cccc(F)c3)cnn12
[2] O=c1c(-c2cc[nH]n2)n[nH]c2c(-c3cccs3)cnn12
Which entry shows the lesser value of pKi here, 1 or 2 ? Write down the label of the entry you select.
2
(2: 6.55, 1: 7.00)

[I] O=c1c(-c2cc[nH]n2)n[nH]c2c(-c3cccc(C(F)(F)F)c3)cnn12
[II] O=c1c(-c2cc[nH]n2)n[nH]c2c(-c3cccc(Cl)c3)cnn12
[III] O=c1c(-c2cc[nH]n2)n[nH]c2c(-c3ccccc3)cnn12
[IV] O=c1c(-c2cc[nH]n2)n[nH]c2c(-c3cccc(Br)c3)cnn12
Reorder: pKi, max to min. Answer format: the labels, ordered as requested.
I, IV, II, III
